Reported chromatographic logP values follow for various molecules
# test-method-notes: log P by HPLC on reversed-phase column (EEC Directive 79/831 Annex V.A8)
# Assay type: physicochemical
# condition-set: reversed-phase C18 HPLC column; pH 7.8, aqueous ammonium hydrogencarbonate/acetonitrile; 55° C.; read-out: log P (neutral)
Respond numerically, and do not add a unit to the figure.

The cases that follow already have their chromatographic logP on record.
[
  {
    "molecule": "CCS(=O)(=O)c1cc2ccccc2nc1-c1nc2cc3c(cc2n1C)OC(F)(F)O3 [Example I-16]",
    "data-value": 3.39
  },
  {
    "molecule": "Cn1c(-c2nc3ccccc3cc2Cl)nc2cc(C(F)(F)F)ncc21 [Example V-1]",
    "data-value": 2.89
  },
  {
    "molecule": "CCSc1cc2ccccc2nc1-c1nc2cc(C(F)(F)F)cnc2o1 [Example I-27]",
    "data-value": 4.36
  },
  {
    "molecule": "CCS(=O)(=O)c1cc2ccccc2nc1-c1nc2cc3c(cc2[nH]1)OC(F)(F)O3 [Example I-15]",
    "data-value": 3.37
  },
  {
    "molecule": "CCS(=O)(=O)c1cc2ccccc2nc1-c1nc2cc(SC(F)(F)F)ccc2o1 [Example I-14]",
    "data-value": 4.17
  }
]

Query: Data request, read-out chromatographic logP, for CCSc1cc2cc(Cl)ccc2nc1-c1nc2cc(C(F)(F)F)ncc2n1C
Response: 3.99

Query: Data request, read-out chromatographic logP, for CCSc1nc2ccccc2nc1-c1nc2cc(C(F)(F)F)ncc2n1C [Example I-4]
Response: 4.1

Query: Data request, read-out chromatographic logP, for CCSc1cc2ccccc2nc1-c1nc2cc(C(F)(F)F)ncc2n1C [Example I-2]
Response: 3.3

Query: Data request, read-out chromatographic logP, for CCS(=O)(=O)c1cc2ccccc2nc1-c1nc2cc(SC(F)(F)F)ccc2n1C [Example I-21]
Response: 3.96

Query: Data request, read-out chromatographic logP, for CCSc1cc2ccccc2nc1-c1nc2cc3c(cc2[nH]1)OC(F)(F)O3 [Example I-31]
Response: 4.26

Query: Data request, read-out chromatographic logP, for CCS(=O)(=O)c1ccc2nc(-c3nc4cc(C(F)(F)F)ncc4n3C)c(S(=O)(=O)CC)cc2c1 [Example I-6]
Response: 2.58

Query: Data request, read-out chromatographic logP, for CCS(=O)(=O)c1cc2ccccc2nc1-c1nc2cc([S+]([O-])C(F)(F)F)ccc2n1C (stereo not drawn) [Example I-23]
Response: 2.79

Query: Data request, read-out chromatographic logP, for CCSc1cc2ccccc2nc1C(=O)O
Response: 0.48

Query: Data request, read-out chromatographic logP, for CCSc1cc2ccccc2nc1C(C)=O
Response: 3.31

Query: Data request, read-out chromatographic logP, for Cn1c(-c2nc3ccc(Cl)cc3cc2Cl)nc2cc(C(F)(F)F)ncc21 [Example V-4]
Response: 3.53
